Measured values drawn from the supplement of paper PMC10567573 for this set.

B1: CSTF3 (parent)
chain: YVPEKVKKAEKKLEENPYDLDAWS

Variants of: B1
TEST_SUMMARY: protein stability index of a GFP-peptide fusion (GPS, HEK-293T) (PSI 1-6); higher = more stable;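 note: lentivirally expressed fusions sorted by FACS into six bins by GFP to DsRed ratio, PSI derived from sequencing read proportions per bin multiplied by bin number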
APPLIED_CONDITIONS: c terminus: a fixed tail appended
Task for the reader: assign each of the following variants its reported protein stability index.

// for each variant in input: emit protein stability index
1. E14C
2. D21I
3. D19T
4. K7S
5. A22Y
6. K11A
7. L20Y
8. W23Q

Found:
1. 3.58
2. 3.3
3. 2.34
4. 2.47
5. 2.36
6. 2.32
7. 2.13
8. 1.79

// for each variant in input: emit protein stability index
1. L13F
2. K7E
3. E4P

Found:
2.02
2.56
2.3
